Test: Plasma pharmacokinetics of brensocatib in adults with CF, once-daily oral dosing for 28 days (noncompartmental analysis)
Type: in vivo, human
Settings: human, plasma, oral, 25 mg, 25 mg QD; Day 28; n = 7; mean (CV%); read-out: Cmax
endpoint: Cmax (ng/mL)
Write the value in ng/mL as a bare number.

Exercise: Fill in: Cmax of Cn1c(=O)oc2ccc(-c3ccc(C[C@@H](C#N)NC(=O)[C@@H]4CNCCCO4)cc3)cc21 is ___
Key: 249

----------
Test: Plasma pharmacokinetics of brensocatib in adults with CF, once-daily oral dosing for 28 days (noncompartmental analysis)
Format: in vivo, human
Conditions: human, plasma, oral, 10 mg, 10 mg QD; Day 1; n = 8; mean (CV%); read-out: AUClast
endpoint: AUC(0-t) (ng·h/mL)
Write the value in ng·h/mL as a bare number.

Exercise: Fill in: AUC(0-t) of Cn1c(=O)oc2ccc(-c3ccc(C[C@@H](C#N)NC(=O)[C@@H]4CNCCCO4)cc3)cc21 [Brensocatib] is ___
Key: 879

Provenance of the data: paper PMC12479633
